Assay: NCI Yeast Anticancer Drug Screen. Data for the bub3 strain (AID 167)
Settings: S. cerevisiae bub3 mutant strain, at 50.0 µM, hits give high values
This is part of a sample that, as a whole, favours compounds with a hit. Of some 79,000 tested, about 15% had one in any assay.
Examples of molecules with documented growth inhibition follow.
MEASURED ENDPOINT: growth inhibition (%)

MOLECULE: O=C(O)c1ccc(O)c(Cl)c1
MEASURED ENDPOINT: growth inhibition
OBSERVED: 9.25
--
MOLECULE: O=C(NC1(C(=O)O)CC1c1ccccc1)c1ccccc1 (centres undefined)
MEASURED ENDPOINT: growth inhibition
OBSERVED: 9.05
--
MOLECULE: COC(=O)/C=C/c1cc(=O)n2c(nc3ccccc32)s1
MEASURED ENDPOINT: growth inhibition
OBSERVED: -41.5
--
MOLECULE: CC1=CC(CO)C2C(=O)NC(=O)C2C1C (centres undefined)
MEASURED ENDPOINT: growth inhibition
OBSERVED: -17.1
--
MOLECULE: CCCC(C)C(=O)O (centres undefined)
MEASURED ENDPOINT: growth inhibition
OBSERVED: 28.8
--
MOLECULE: CCC(=O)Oc1ccc([N+](=O)[O-])cc1[N+](=O)[O-]
MEASURED ENDPOINT: growth inhibition
OBSERVED: -0.5
--
MOLECULE: O=C(O)CCCC1=C2CCC(=O)C=C2CCC1
MEASURED ENDPOINT: growth inhibition
OBSERVED: -20.6
--
MOLECULE: CC(=O)OCC1OC(Cl)C(OC(=O)C(Cl)(Cl)Cl)C(OC(C)=O)C1OC(C)=O (centres undefined)
MEASURED ENDPOINT: growth inhibition
OBSERVED: -2.65
--
MOLECULE: Cc1nc(CO)cc(=O)[nH]1
MEASURED ENDPOINT: growth inhibition
OBSERVED: -25.4
--
MOLECULE: COC(=O)c1[nH]c(=O)[nH]c(=S)c1N
MEASURED ENDPOINT: growth inhibition
OBSERVED: -17.8
--
MOLECULE: OCCSCCCCCCSCCO
MEASURED ENDPOINT: growth inhibition
OBSERVED: 2.7
--
MOLECULE: Cc1cc(=O)oc2c1c(C)nn2-c1cccc(Cl)c1
MEASURED ENDPOINT: growth inhibition
OBSERVED: -5.1
--
MOLECULE: Cc1cccc(-c2nc(N)nc(N)n2)c1
MEASURED ENDPOINT: growth inhibition
OBSERVED: 7
--
MOLECULE: COc1cc(NCCCCCCN(C)C)c2ncccc2c1
MEASURED ENDPOINT: growth inhibition
OBSERVED: 5.8

###

Test: NCI Yeast Anticancer Drug Screen. Data for the bub3 strain (AID 167)
Conditions: S. cerevisiae bub3 mutant strain, at 50.0 µM, hits give high values
This is part of a sample that, as a whole, favours compounds with a hit. Of some 79,000 tested, about 15% had one in any assay.
MEASURED ENDPOINT: growth inhibition (%)

COMPOUND: COc1ccc2c(c1)CCN1CCCc3ccc(OC)cc3C21 (stereo not drawn)
OBSERVED: 31.4
--
COMPOUND: CC(=O)Nc1cc2cc(NS(=O)(=O)c3cc(C(F)(F)F)cc(C(F)(F)F)c3)ccc2oc1=O
OBSERVED: -9.95
--
COMPOUND: CCOC(=O)N1CCN(Cc2cc(=O)n3cc(C)ccc3n2)CC1
OBSERVED: 5.95
--
COMPOUND: COC(=O)Nc1cccc(OC(=O)Nc2cccc(Cl)c2)c1
OBSERVED: 31.4
--
COMPOUND: CC1N(/N=C/c2ccccc2)C(c2ccccc2)C(c2ccccc2)N1/N=C/c1ccccc1 (stereo not drawn)
OBSERVED: 1.75
--
COMPOUND: CCOC(=O)C12CC(COc3ccc([N+](=O)[O-])cc3)ON1OC(COc1ccc([N+](=O)[O-])cc1)C2 (stereo not drawn)
OBSERVED: -3.85
--
COMPOUND: COc1ccc(/C(Cl)=C(\C=O)c2ccc(OC)c(OC)c2)cc1OC
OBSERVED: -3
--
COMPOUND: CC1=CC(C)(C)SC(=S)N1
OBSERVED: -3.35
--
COMPOUND: CCCN(CCC#N)C(=S)Nc1ccc(C)c(C)c1
OBSERVED: -41.6
--
COMPOUND: CSCCCC(N)=O
OBSERVED: -10.2
--
COMPOUND: COC(=O)C12C=CC(C1)n1c(=O)n(-c3ccccc3)c(=O)n12 (stereo not drawn)
OBSERVED: 4.4
--
COMPOUND: CCOC(=O)/C=C1\CCCC12OCCO2
OBSERVED: -5.75
--
COMPOUND: COc1ccc2c(c1)nc1n2C(N)=Nc2ccccc2S1
OBSERVED: 58
--
COMPOUND: CCCCCC(CCCCC)=C(C#N)C(=O)OCC
OBSERVED: 19.9
--
COMPOUND: COc1ccc(/C(Cl)=C(\C=N/O)c2ccc(OC)c(OC)c2)cc1OC
OBSERVED: 8.15
--
COMPOUND: CC1(C)CC(=O)C(/C=N/C(=S)NC2CCCCC2)=C(O)C1
OBSERVED: -7.7
--
COMPOUND: O=C(/C=C/c1ccco1)N1CCN(Cc2ccccc2)CC1
OBSERVED: 53
--
COMPOUND: c1ccc2cc3c(NC4=NCCO4)cccc3cc2c1
OBSERVED: 33.1
--
COMPOUND: O=C(N=Nc1c(O)[nH]c2ccc(Br)cc12)c1ccncc1
OBSERVED: 8.25
--
COMPOUND: COc1cc(OC)c(C(=O)/C=C/c2ccccc2)c(O)c1OC
OBSERVED: -15.1
--
COMPOUND: CN1C2=C(CC3=C1CC(C)(C)CC3=O)C(=O)CC(C)(C)C2
OBSERVED: -27.6
--
COMPOUND: CC(C)(C)NC1=NCCNC(c2ccccc2)=C1
OBSERVED: -30.8
--
COMPOUND: CCOC(=O)/N=c1/nc(N(C)C)ss1
OBSERVED: -9.4

###

Examples of compounds with documented growth inhibition follow.
Experiment: NCI Yeast Anticancer Drug Screen. Data for the sgs1 mgt1 strain (AID 161);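 further: 0% = growth of cultures given vehicle only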
Settings: S. cerevisiae sgs1 mgt1 strain, at 50.0 µM, hits give high values
Compounds without any hit were thinned out: in the full panel of roughly 79,000, 15% have a hit.
MEASURED ENDPOINT: growth inhibition (%)

COMPOUND: CCCc1nc2ccccc2c(=O)n1/N=C/c1ccc(Cl)cc1Cl
OBSERVED: 0.05

COMPOUND: O=C(CC1Sc2ccccc2NC1=O)NNc1c(Cl)cc(Cl)cc1Cl (stereo not given)
OBSERVED: 4

COMPOUND: Cc1cc(=O)oc2c(C(=O)/C=C/N(C)C)c(O)ccc12
OBSERVED: 7.85

COMPOUND: FCCCCSc1ncnc2nc[nH]c12
OBSERVED: -24.7

COMPOUND: NNC(=O)/C(NC(=O)c1ccccc1)=C(\N)c1cccc([N+](=O)[O-])c1
OBSERVED: 11.7

###

Test: NCI Yeast Anticancer Drug Screen. Data for the cln2 rad14 strain (AID 165);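 further: 0% = growth equal to vehicle treated cultures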
Conditions: S. cerevisiae cln2 rad14 strain, at 50.0 µM
This is part of a sample that, as a whole, favours compounds with a hit. Of some 79,000 tested, about 15% had one in any assay. Active and inactive are the calls of the source. No stated cut-off is given here; in the data, active means growth inhibition above about 70%; inactive means the rest.
Outcomes: yes (1) = active, no (0) = inactive

MOLECULE: CCCCCCn1cnc2c(=S)nc[nH]c21
GROUP: no (0)

MOLECULE: Nc1nc(N)nc(CC(=O)O)n1
GROUP: no (0)

MOLECULE: CC(C)CCNc1ncnc2[nH]ncc12
GROUP: no (0)

MOLECULE: COc1cc(Br)cc2nc(-c3cccs3)oc12
GROUP: no (0)

MOLECULE: O=C1c2ccccc2CC12Cc1ccccc1C2
GROUP: no (0)

MOLECULE: O=C1S/C(=C2\C(=O)N(CN3CCCCC3)c3ccc(Br)cc32)C(=O)N1CN1CCCCC1
GROUP: no (0)

MOLECULE: c1ccc(-c2cc[c]([Sn]([c]3ccccc3)([c]3ccccc3)[c]3ccccc3)cc2)cc1
GROUP: yes (1)

MOLECULE: Cc1ccc(C)c2c(CC(=O)O)c[nH]c12
GROUP: no (0)

MOLECULE: CC(=O)CC(=O)NCCN(C)C
GROUP: no (0)

MOLECULE: Cc1ccc(OCCNCCO)cc1
GROUP: no (0)

MOLECULE: CCCS(CCC)=NS(=O)(=O)c1ccc(C)cc1
GROUP: no (0)

MOLECULE: CC(=O)Nc1ccc(S(=O)(=O)Nc2c(N)[nH]c(=S)[nH]c2=O)cc1
GROUP: no (0)

MOLECULE: O=[N+]([O-])c1ccccc1SSc1ccccc1[N+](=O)[O-]
GROUP: no (0)

MOLECULE: CCCCCCC#CC(=O)O
GROUP: no (0)

MOLECULE: O=C1C(=Cc2ccco2)C(=O)C2CCCCC12 (centres undefined)
GROUP: no (0)

MOLECULE: CCCCCCCCCCCCCCCCOCC(CCl)OP(=O)(O)OP(=O)(O)OCC1OC(n2ccc(N)nc2=O)C(O)C1O (centres undefined)
GROUP: no (0)

MOLECULE: CC(=O)NC(N)=O
GROUP: no (0)

MOLECULE: CCCCCCCCCCCCP(=O)(O)O
GROUP: no (0)

MOLECULE: c1cc(CNCCN2CCNCC2)ccn1
GROUP: no (0)

MOLECULE: CC1=CC(C)(C)Nc2ccccc21
GROUP: no (0)

MOLECULE: c1cnc2c3ccncc3c3nc(-c4ccncc4)[nH]c3c2c1
GROUP: no (0)

MOLECULE: CC1(O)CCC2CC1C2(C)CO (centres undefined)
GROUP: no (0)

MOLECULE: Cc1ccc(C)c(N2C(=O)C(=O)C(c3nc4ccccc4s3)/C(=N/NC(=O)NN)C2=O)c1 (centres undefined)
GROUP: no (0)

MOLECULE: CCOC(=O)C1=C(NC(C)(C)C)OC/C1=N\NC(=O)Cc1ccccc1
GROUP: no (0)
